Parameter: IC50. Scope: all listed entries.
Biological target: recombinant human DAO (diamine oxidase) (Homo sapiens)
Construct: purchased R&D systems
Sequence (P19801 20-751): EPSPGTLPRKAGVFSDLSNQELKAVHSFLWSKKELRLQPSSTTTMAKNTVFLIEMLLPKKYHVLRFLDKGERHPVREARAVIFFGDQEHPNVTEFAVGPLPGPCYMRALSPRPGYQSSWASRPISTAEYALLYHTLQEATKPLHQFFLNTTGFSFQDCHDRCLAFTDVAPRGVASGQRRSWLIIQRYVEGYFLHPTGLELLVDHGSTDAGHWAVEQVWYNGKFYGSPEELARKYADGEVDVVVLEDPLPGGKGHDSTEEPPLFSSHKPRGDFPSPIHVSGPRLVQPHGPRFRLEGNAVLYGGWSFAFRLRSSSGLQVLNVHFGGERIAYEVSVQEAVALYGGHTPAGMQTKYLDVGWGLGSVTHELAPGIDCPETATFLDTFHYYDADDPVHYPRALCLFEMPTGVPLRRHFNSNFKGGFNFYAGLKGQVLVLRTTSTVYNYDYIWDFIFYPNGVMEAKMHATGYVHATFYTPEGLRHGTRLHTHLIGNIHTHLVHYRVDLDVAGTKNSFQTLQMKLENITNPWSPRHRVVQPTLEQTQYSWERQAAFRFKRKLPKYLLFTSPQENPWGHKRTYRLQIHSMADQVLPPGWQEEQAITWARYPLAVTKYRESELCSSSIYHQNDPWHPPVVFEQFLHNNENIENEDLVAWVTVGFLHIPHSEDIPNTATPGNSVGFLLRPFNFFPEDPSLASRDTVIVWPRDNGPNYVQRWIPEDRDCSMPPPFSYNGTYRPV
Assay: Activity on recombinant human DAO, Amplex Red method, 1 mM putrescine substrate
Assay type: biochemical
Conditions: recombinant human DAO, 1 mM putrescine; * = between 10 and 100 nM, ** = between 300 and 1000 nM; read-out: Inhibitory Activity (IC50, nM) DAO
Counter-ions that a name gives are not always drawn.

Example results:
- Compound: "Cc1cc(Br)cnc1-n1cnn(C/C(=C/F)CN)c1=O [Example 32, hydrochloride]"
  Metric name: "IC50"
  Result: "> 100000 nM"
- Compound: "CC(C)c1nc(-c2cccc(-c3cccc(-n4cnn(C/C(=C/F)CN)c4=O)c3)c2)no1 [Example 65, hydrochloride]"
  Metric name: "IC50"
  Result: "< 30 nM"
- Compound: "CS(=O)(=O)c1ccc(-c2cccc(-n3cnn(C/C(=C/F)CN)c3=O)c2)cc1 [Example 54, hydrochloride]"
  Metric name: "IC50"
  Result: "< 100 nM"

Consider the additional compound presented here.
IN: Find IC50 (recombinant human DAO (diamine oxidase) (Homo sapiens)) for the entry CC(=O)Nc1ccc(-c2cccc(-n3cnn(C/C(=C/F)CN)c3=O)c2)cc1 [Example 57, hydrochloride]
OUT: < 100 nM

* * *

Target: recombinant human MAO-A (monoamine oxidase-A) (Homo sapiens)
Construct: purchased Sigma-Aldrich
Sequence (P21397 whole entry): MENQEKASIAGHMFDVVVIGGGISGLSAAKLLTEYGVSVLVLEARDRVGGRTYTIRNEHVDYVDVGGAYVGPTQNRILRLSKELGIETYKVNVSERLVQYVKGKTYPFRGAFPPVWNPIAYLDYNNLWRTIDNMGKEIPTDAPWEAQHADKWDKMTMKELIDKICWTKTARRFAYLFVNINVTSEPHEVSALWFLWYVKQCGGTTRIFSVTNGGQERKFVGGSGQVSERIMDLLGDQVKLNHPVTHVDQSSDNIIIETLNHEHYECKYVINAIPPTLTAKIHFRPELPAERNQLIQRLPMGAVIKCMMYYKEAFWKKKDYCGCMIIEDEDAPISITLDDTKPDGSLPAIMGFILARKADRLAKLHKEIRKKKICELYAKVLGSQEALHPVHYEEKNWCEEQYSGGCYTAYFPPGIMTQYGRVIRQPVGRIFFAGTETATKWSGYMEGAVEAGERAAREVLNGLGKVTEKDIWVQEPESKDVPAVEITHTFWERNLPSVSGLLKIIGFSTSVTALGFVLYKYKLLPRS
Assay: Activity on recombinant human MAO-A, Amplex Red method, 0.5 mM tyramine substrate
Format: biochemical
Settings: 0.5 mM tyramine, read-out: Inhibitory Activity (IC50, nM) MAO-A
Counter-ions that a name gives are not always drawn.
Metric name: IC50

- Compound: "CC(=O)Nc1cc(-c2cccc(-n3cnn(C/C(=C\\F)CN)c3=O)c2)ccn1 [Example 80, hydrochloride]"
  IC50: "> 100000 nM"
- Compound: "Cc1cc(-c2ccc(N3CCNCC3)cc2)cnc1-n1cnn(C/C(=C/F)CN)c1=O [Example 145, hydrochloride]"
  IC50: "> 100000 nM"

Below: the item to evaluate.
IN: Request the reported IC50 associated with COc1cc(-c2cccc(-n3cnn(C/C(=C/F)CN)c3=O)c2)ccn1 [Example 79, hydrochloride]
OUT: > 100000 nM

* * *

Molecular target: recombinant human VAP-1 (Homo sapiens, UniProt Q16853)
Construct: purchased R&D systems
Sequence (Q16853 1-763): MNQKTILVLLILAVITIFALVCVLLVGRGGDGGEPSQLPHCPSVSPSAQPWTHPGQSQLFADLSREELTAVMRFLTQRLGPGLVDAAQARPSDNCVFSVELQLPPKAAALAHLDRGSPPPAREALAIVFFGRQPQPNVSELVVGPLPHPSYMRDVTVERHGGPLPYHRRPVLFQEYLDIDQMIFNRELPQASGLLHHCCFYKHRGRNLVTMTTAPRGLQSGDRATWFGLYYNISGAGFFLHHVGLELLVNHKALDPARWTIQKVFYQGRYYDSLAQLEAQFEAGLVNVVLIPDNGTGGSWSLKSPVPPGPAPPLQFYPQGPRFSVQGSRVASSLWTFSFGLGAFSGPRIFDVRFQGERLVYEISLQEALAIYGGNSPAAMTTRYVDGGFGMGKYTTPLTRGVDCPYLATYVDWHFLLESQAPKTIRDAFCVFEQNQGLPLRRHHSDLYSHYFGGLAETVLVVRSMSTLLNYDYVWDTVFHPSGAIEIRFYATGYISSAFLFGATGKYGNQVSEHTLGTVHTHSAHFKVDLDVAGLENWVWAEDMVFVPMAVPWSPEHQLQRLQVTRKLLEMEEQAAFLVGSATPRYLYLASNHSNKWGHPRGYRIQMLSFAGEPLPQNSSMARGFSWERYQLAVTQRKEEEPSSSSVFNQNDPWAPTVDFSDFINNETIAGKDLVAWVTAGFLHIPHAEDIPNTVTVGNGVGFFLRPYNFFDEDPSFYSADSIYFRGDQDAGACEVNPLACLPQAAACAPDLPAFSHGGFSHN
Test: Activity on recombinant human VAP-1, Amplex Red HRP-coupled hydrogen peroxide assay, benzylamine substrate
Type: biochemical
Conditions: recombinant human VAP-1, benzylamine substrate; read-out: Inhibitory Activity (IC50, nM) human VAP-1
Structures can show the parent of a compound that is named as a salt.
Metric name: IC50 (nM)

Worked examples follow.
- Molecule: "Cc1cc(-c2ccc3c(c2)NC(=O)C3)cnc1-n1cnn(C/C(=C/F)CN)c1=O"
  IC50 [nM]: 0.52
- Molecule: "CC(C)c1nc(-c2ccc(-c3cc(-n4cnn(C/C(=C/F)CN)c4=O)ccn3)cc2)no1 [Example 205, hydrochloride]"
  IC50 [nM]: 1
- Molecule: "NC/C(=C\\F)Cn1ncn(-c2cccc(C#Cc3cnc4c(c3)NC(=O)CO4)n2)c1=O"
  IC50 [nM]: 0.2
- Molecule: "NC/C(=C\\F)Cn1ncn(-c2cc(C#Cc3ccccn3)ccn2)c1=O [Example 244, hydrochloride]"
  IC50 [nM]: 0.8
- Molecule: "Cc1cc(-n2cnn(C/C(=C/F)CN)c2=O)ncc1-c1cccc(-c2nc[nH]n2)c1"
  IC50 [nM]: 0.18

[A] NC/C(=C\F)Cn1ncn(-c2cccc(/C=C/c3ccsc3)n2)c1=O
[B] Cc1cc(-n2cnn(C/C(=C/F)CN)c2=O)ncc1-c1ccc2sc(N)nc2c1 [Example 161, hydrochloride]
[C] NC/C(=C\F)Cn1ncn(-c2cccc(-c3ccc(C(F)(F)F)nc3)n2)c1=O [Example 187, hydrochloride]
IN: List from greatest to least IC50. Quick reminder: the answer is the labels in the order asked.
OUT: B, A, C

Each recorded value in this set is attributed to patent US11492335B2.
